Consider the following compounds; for each one, report its RLU.
Target: mouse Tas2r105 (Mus musculus)
Construct: expressed in transfected cells; host or cells: HEK293T-Gα16gust44
Sequence (Q9JKT4 1-300): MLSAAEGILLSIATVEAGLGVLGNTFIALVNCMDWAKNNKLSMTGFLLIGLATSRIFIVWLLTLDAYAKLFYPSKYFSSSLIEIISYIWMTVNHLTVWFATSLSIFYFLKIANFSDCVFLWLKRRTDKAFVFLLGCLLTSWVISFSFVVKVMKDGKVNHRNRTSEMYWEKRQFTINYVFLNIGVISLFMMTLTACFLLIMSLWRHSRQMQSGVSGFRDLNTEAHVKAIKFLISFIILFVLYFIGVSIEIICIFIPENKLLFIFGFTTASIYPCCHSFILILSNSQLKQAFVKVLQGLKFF
Test: Calcium imaging assay (FLIPR), HEK293T-Gα16gust44 cells transfected with mouse Tas2r105
Assay type: cell-based
Details: Time 48.781 s
Numbers only, in RLU.

// worked examples, RLU included
[
  {
    "COMPOUND": "C[C@H](CCC(=O)O)[C@H]1CC[C@H]2[C@@H]3[C@H](O)C[C@@H]4C[C@H](O)CC[C@]4(C)[C@H]3C[C@H](O)[C@]12C [Cholic Acid, cholic acid]",
    "DATA VALUE": 193.51
  },
  {
    "COMPOUND": "C[C@H](CCC(=O)O)[C@H]1CC[C@H]2[C@@H]3CC[C@@H]4C[C@H](O)CC[C@]4(C)[C@H]3C[C@H](O)[C@]12C [Deoxycholic Acid, deoxycholic acid]",
    "DATA VALUE": 27.0511
  },
  {
    "COMPOUND": "C[C@H](CCC(=O)NCC(=O)O)[C@H]1CC[C@H]2[C@@H]3[C@H](O)C[C@@H]4C[C@H](O)CC[C@]4(C)[C@H]3C[C@H](O)[C@]12C [Glycocholic Acid, glycocholic acid]",
    "DATA VALUE": 228.76
  }
]

input: // returns reported RLU for input C[C@H](CCC(=O)O)[C@H]1CC[C@H]2[C@@H]3CC[C@@H]4C[C@H](O)CC[C@]4(C)[C@H]3CC[C@]12C [Lithocholic Acid, lithocholic acid]
output: 74.4289
